target: T1, hen egg lysozyme (Gallus gallus (hen egg white), UniProt P00698); assay: SPR; Biacore T200; lysozyme immobilised on Sensor Chip CM5 by amine coupling to 200 RU; VHH injected 300 s, dissociation 600 s; running buffer PBST (PBS, 0.005% Tween 20); duplicate; 1:1 binding model; conditions: both partners purified
T1 construct: hen egg lysozyme (HEL), antigen of VHH D3-L11; also in the complex structure PDB 6JB8; also called HEL; antigen lysozyme; source: bought: Sigma-Aldrich, Cat No. L6876 (named for the ELISA)
T1 sequence (P00698 19-147): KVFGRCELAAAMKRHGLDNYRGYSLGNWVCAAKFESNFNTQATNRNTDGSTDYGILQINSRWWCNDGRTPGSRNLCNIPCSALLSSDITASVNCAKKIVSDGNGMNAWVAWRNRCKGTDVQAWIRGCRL
fold decrease in affinity (KD) against wild type overview
PROPERTY MEASURED: fold decrease in affinity (KD) against wild type

- BINDER: "D3-L11 A79V (VHH, as the VHH chain of m2 (D3-L11, PDB 6JB8) with the stated substitution; Second-round mutant; same construct as m2; also called V mutant; source: ExpiCHO, transient transfection, purified from supernatant (His Mag Sepharose excel); not shown: His6 (after a SAG tripeptide linker), C-terminal, kept) VHH: DVQLVESGGGSVQAGGSLRLSCAASGSTDSIEYMTWFRQAPGKAREGVAALYTHTGNTYYTDSVKGRFTISQDKAKNMVYLRMDSVKSEDTAIYTCGATRKYVPVRFALDQSSYDYWGQGTQVTVSS"
  RESULT: "< 2 fold"
- BINDER: "D3-L11 A79T (VHH, as the VHH chain of m2 (D3-L11, PDB 6JB8) with the stated substitution; Second-round mutant; same construct as m2; also called T mutant; source: ExpiCHO, transient transfection, purified from supernatant (His Mag Sepharose excel); not shown: His6 (after a SAG tripeptide linker), C-terminal, kept) VHH: DVQLVESGGGSVQAGGSLRLSCAASGSTDSIEYMTWFRQAPGKAREGVAALYTHTGNTYYTDSVKGRFTISQDKAKNMTYLRMDSVKSEDTAIYTCGATRKYVPVRFALDQSSYDYWGQGTQVTVSS"
  RESULT: "< 10 fold"
- BINDER: "D3-L11 A79Q (VHH, as the VHH chain of m2 (D3-L11, PDB 6JB8) with the stated substitution; Second-round mutant; same construct as m2; also called Q mutant; source: ExpiCHO, transient transfection, purified from supernatant (His Mag Sepharose excel); not shown: His6 (after a SAG tripeptide linker), C-terminal, kept) VHH: DVQLVESGGGSVQAGGSLRLSCAASGSTDSIEYMTWFRQAPGKAREGVAALYTHTGNTYYTDSVKGRFTISQDKAKNMQYLRMDSVKSEDTAIYTCGATRKYVPVRFALDQSSYDYWGQGTQVTVSS"
  RESULT: "< 10 fold"
- BINDER: "D3-L11 A79W (VHH, as the VHH chain of m2 (D3-L11, PDB 6JB8) with the stated substitution; Second-round mutant; same construct as m2; also called W mutant; source: ExpiCHO, transient transfection, purified from supernatant (His Mag Sepharose excel); not shown: His6 (after a SAG tripeptide linker), C-terminal, kept) VHH: DVQLVESGGGSVQAGGSLRLSCAASGSTDSIEYMTWFRQAPGKAREGVAALYTHTGNTYYTDSVKGRFTISQDKAKNMWYLRMDSVKSEDTAIYTCGATRKYVPVRFALDQSSYDYWGQGTQVTVSS"
  RESULT: "< 10 fold"
